Each recorded value in this set is attributed to paper PMC4391719.

PROTOCOL_DESCRIPTION: Biodistribution of ^111In-labelled fragments in CD1 nu/nu mice without tumours
Type: in vivo, mouse
TEST_PARAMETERS: CD1 nu/nu, mouse, pancreas, iv, 100 kBq, total radioactivity, ^111In-labelled fragment ~100 kBq i.v. tail vein, mice without tumours, after 4 h; read-out: Biodistribution of fragment, Pancreas
PARAMETER_MEASURED: tissue uptake at 4 h
Report as: number unit

molecule CSCC[C@H](NC(=O)[C@H](Cc1ccc(O)cc1)NC(=O)[C@@H](N)CC(=O)O)C(=O)NCC(=O)N[C@@H](Cc1c[nH]c2ccccc12)C(=O)N[C@@H](CCSC)C(=O)N[C@@H](CC(=O)O)C(=O)N[C@@H](Cc1ccccc1)C(=O)N[C@@H](CCCCNC(=O)CCC(C(=O)O)N1CCN(CC(=O)O)CCN(CC(=O)O)CC1)C(N)=O (stereo partly shown) , tissue uptake at 4 h observed: 0.02 %ID/g
